Each recorded value in this set is attributed to the Human Domainome abundance scans (Beltran et al. 2025).

B1: Protein S100-G, residues 1 to 79; numbered along this chain, P02633 (parent)
chain: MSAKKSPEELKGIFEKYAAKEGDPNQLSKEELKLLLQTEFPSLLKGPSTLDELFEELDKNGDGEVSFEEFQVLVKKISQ

Variants of: B1
Assay: abundance fitness (aPCA) (normalised: wild type 0, dead -1); higher = more abundant; growth selection in yeast, the domain comes from the species named
Details: Bos taurus
Outcome: satisfied for abundance fitness of at least -0.04; not satisfied for anything lower.

Variant label: E39H
Class label: not satisfied

Variant label: P24W
Class label: not satisfied

Variant label: K5E
Class label: not satisfied

Variant label: L27P
Class label: not satisfied

Variant label: G22W
Class label: not satisfied

Variant label: A3G
Class label: not satisfied

Variant label: F54G
Class label: satisfied

Variant label: L50S
Class label: satisfied

Variant label: L36I
Class label: satisfied

Variant label: K20C
Class label: not satisfied

Variant label: E8F
Class label: not satisfied

Variant label: S6H
Class label: not satisfied

Variant label: L53I
Class label: satisfied

Variant label: F40Q
Class label: not satisfied

Variant label: E8S
Class label: not satisfied

Variant label: N25A
Class label: satisfied
